- Measurement target: KRAS^G12C/SOS1 (Homo sapiens, UniProt P01116, G12C)
- Construct: purchased CisBio
- Sequence (P01116 1-188 isoform P01116-2 G12C): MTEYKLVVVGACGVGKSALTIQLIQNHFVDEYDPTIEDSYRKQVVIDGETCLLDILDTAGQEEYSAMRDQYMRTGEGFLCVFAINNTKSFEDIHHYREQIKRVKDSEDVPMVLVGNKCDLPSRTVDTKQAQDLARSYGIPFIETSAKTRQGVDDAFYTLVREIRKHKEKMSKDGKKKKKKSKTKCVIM
- Protocol summary: KRAS^G12C/SOS1 protein-protein interaction Binding assay (CisBio kit)
- Measurement conditions: class symbols
The compounds listed here are annotated with their IC50.

Reference set (5 entries):
[[record]]
compound = "C=CC(=O)N1CCN(c2nc(OC[C@@H]3C[C@H](F)CN3C)nc3c(F)c(-c4ccc(F)c5sc(N)nc45)c(Cl)cc23)CC1 [Example 25]"
assay_value = "< 50 nM"

[[record]]
compound = "C=CC(=O)N1CCN(c2nc(OC[C@@H]3CCCN3C)nc3c(F)c(-c4ccc(F)c5sc(N)nc45)c(Cl)cc23)CC1CC#N (stereo partly drawn) [Example 12]"
assay_value = "50 to 200 nM"

[[record]]
compound = "C=CC(=O)N1CCN(c2nc(OC[C@@H]3C[C@@H](F)CN3C)nc3c(F)c(-c4ccc(F)c5sc(N)nc45)c(Cl)cc23)CC1 [Example 27]"
assay_value = "< 50 nM"

[[record]]
compound = "C=CC(=O)N1CCN(c2nc(OC[C@@H]3CCCN3C)nc3c(F)c(-c4ccc(F)c5sc(N)nc45)c(Cl)cc23)C[C@H]1C [Example 11]"
assay_value = "50 to 200 nM"

[[record]]
compound = "C=CC(=O)N1CCN(c2c(C#N)cnc3c(F)c(-c4ccc(F)c5sc(N)nc45)c(Cl)cc23)CC1CC#N (stereo not drawn) [Example 15]"
assay_value = "200 to 1000 nM"


Q. Need IC50, item C=CC(=O)N1CCN(c2c(C#N)c(NCCC(=O)N(C)C)nc3c(F)c(-c4ccc(F)c5sc(N)nc45)c(Cl)cc23)CC1 [Example 22]
A. 50 to 200 nM

Q. So what's the measured IC50 for this one? C=CC(=O)N1CCN(c2nc(OC[C@@H]3CCCN3C)nc3c(F)c(-c4ccc(F)c5sc(N)nc45)c(Cl)cc23)CC1 [Example 1]
A. < 50 nM

Q. // lookup IC50 for C=CC(=O)N1CCN(c2nc(OC[C@@H]3CCCN3C)nc3c(F)c(-c4ccc(F)c5sc(N)nc45)c(Cl)cc23)[C@@H](C)C1 [Example 23]
A. < 50 nM

Q. Which IC50 reading was recorded for the compound C=CC(=O)N1CCN(c2nc(NCCC(=O)N(C)C)nc3c(F)c(-c4ccc(F)c5sc(N)nc45)c(Cl)cc23)CC1 [Example 19] ?
A. 50 to 200 nM

---

- Protocol summary: In vivo pharmacokinetic parameter testing in mice
- Set-up: species or system ICR mice
- Measurement conditions: male, ICR, mouse, plasma, iv(1 mg/kg), read-out: Clearance rate Cl
Listed below: clearance values for each entry.
Just the number in mL/min/kg, nothing appended.

[[record]]
molecule = "C=CC(=O)N1C[C@@H]2C(=O)N(C)c3cnc4c(F)c(-c5ccc(F)c6sc(N)nc56)c(Cl)cc4c3N2C[C@H]1C (single isomer, unassigned) [Example 17-1]"
assay_value = 9.04

[[record]]
molecule = "C=CC(=O)N1CCN(c2c(C#N)c(N3CC(N(C)C)C3)nc3c(F)c(-c4ccc(F)c5sc(N)nc45)c(Cl)cc23)CC1 [Example 21]"
assay_value = 21.6

[[record]]
molecule = "C=CC(=O)N1CCN(c2c(C#N)c(OC[C@@H]3CCCN3C)nc3c(F)c(-c4ccc(F)c5sc(N)nc45)c(Cl)cc23)CC1 [Example 3]"
assay_value = 6.35


Now take the following molecule into account.
Q. Fill in: clearance of C=CC(=O)N1CCN(c2c(C#N)cnc3c(F)c(-c4ccc(F)c5sc(N)nc45)c(Cl)cc23)CC1 [Example 8] is ___
A. 11.5
